Recorded values, source PubChem BioAssay (NCI).

Test system: HCT-15 colon
assay: NCI-60 one-dose screen, 48 h (100 = growth as untreated, 0 = no growth, -100 = all killed)
testParameters: 10 µM unless noted
Procedure: Growth inhibition of the HCT-15 human tumor cell line is measured as a screen for anti-cancer activity. Cells are grown in 96 well plates and exposed to the test compound for 48 hours. Compounds are tested at a single concentration, which is 10^-5 M for most compounds. The reported endpoint is percent growth (GI% or GIPRCNT), where numbers from 0 - 100% represent growth inhibition, and numbers from -100% - 0 represent cell death. For example, a value of 40 represents 60% growth inhibition. […]
Compounds without any hit were thinned out: in the full panel of roughly 83,000, 20% have a hit.
What growth was measured for each of the following?
All answers are understood in %, so give the number only.

Using the record for COC12C=C/C(=C(/C(=O)OCc3cncnc3)C(=O)CCCCCCCCC3(OC)C=C/C(=C(/C(=O)OCc4cncnc4)C(=O)CCCCCCCC1)O3)O2 , report its growth.
-49.1

Next record, please: C[C@H](c1nc2ccc(C#N)cc2[nH]1)[C@H]1CC[C@H]2[C@@H]3CCC4=CC(=O)CC[C@]4(C)[C@H]3CC[C@]12C
44.7

And what about the compound CCC(C)(C)c1ccc(Nc2ccc(Nc3ccc(C(C)(C)CC)cc3)cc2)cc1 ?
91.2

Same question, C#Cc1cccc(Nc2ncnc3cc(NC(=O)CCl)ccc23)c1 this time
-67.7

Request: CCN(CC)CCOc1ccc2ccc(=O)oc2c1
104

Next compound up: C=C(c1ccc(C(=O)O)c(F)c1)c1cc2c(cc1C)C(C)(C)CCC2(C)C
80.9

Another: Cc1ccccc1N1CCN(C(=S)c2ccccc2)CC1
98.8

Further, for COc1ccc(/C=C2\CN(C(=O)C(Cl)Cl)C/C(=C\c3ccc(OC)c(OC)c3)C2=O)cc1OC ?
-38.9

What about this compound? Nc1nc(C(=O)N/N=C/c2ccc(F)cc2)nn1-c1ccc(S(N)(=O)=O)cc1
108

Repeat for the following compound: CCOC(=O)c1cnn(CC(C)O)c1NC(=O)NCc1cccc(F)c1 (centres undefined)
107

And what about the compound C=C(C)[C@@H]1CC[C@]2(C(=O)N3CCNCC3)CC[C@]3(C)[C@H](CC[C@@H]4[C@@](C)(CCC(=O)N5CCNCC5)[C@H](C(=C)C)CC[C@]43C)[C@@H]12 ?
30.8

And the next one, Nc1ccc(-c2ccncc2)cc1NC(=O)N1CCCC1 ?
100

Request: COc1ccc(C(=O)/C=C/c2ccccc2)cc1S(N)(=O)=O
44.1

Quick one: COc1ccc(-c2nc3c(c(-c4ccc(Cl)cc4)nn3-c3ccccc3)c(-c3ccccc3)c2C#N)cc1
109

Another compound to check: Cc1cccc(-c2nc(C(C)C)sc2-c2ccnc(NCCCNS(=O)(=O)c3ccc(Cl)cc3)c2)c1
36.5

And what about the compound CCCCCCCCn1ccc2cc(NC(=O)CN3CCN(c4cc(C)nc(Cl)n4)CC3)ccc21 ?
76.3

Quick one: CN(C)CCC(=O)C1CC1
106

Check O=C(c1ccc(Br)cc1)C(Br)C(c1ccc(Cl)cc1)C(c1ccccc1)[N+](=O)[O-] (centres undefined) too.
84.8

And the next one, O=C(Nc1ncc(Cc2ccccc2)s1)c1sc2ccccc2c1Cl ?
26.5

====

System: SF-268 CNS
assay: NCI-60 one-dose screen, 48 h (100 = growth as untreated, 0 = no growth, -100 = all killed)
testParameters: 10 µM unless noted
This is part of a sample that, as a whole, favours compounds with a hit. Of some 83,000 tested, about 20% had one in any assay. The source made the active and inactive calls. The calls were made as follows: active = growth percent below 10; inactive = the rest.
parameter: growth

May I ask what growth has been recorded for O=C(C1=Cc2cc3ccccc3n2Cc2cnnn21)c1ccc(F)cc1 ?
100% (inactive)

Let us now turn to C=CC(=O)Nc1cccc(Oc2nccc(Nc3nnc(-c4ccc(Br)cc4)s3)n2)c1
93.6% (inactive)

Another compound to check: COCCn1cc(-c2nc(-c3c[nH]c4ncccc34)cs2)c2ccccc21
63.9% (inactive)

O=S(=O)(NCCNc1nccc(-c2c(-c3ccc(F)c(O)c3)nc3sccn23)n1)c1ccc(Cl)cc1 , same question.
32.3% (inactive)

How about this compound: CC(C)(C)c1ccc(C(=O)N/N=C/c2ccc(O)cc2O)cc1
19.9% (inactive)

Also Cc1cc(=O)n(C(=S)Nc2ccc(Cl)cc2)c2cc(O)ccc12 , if possible.
102% (inactive)

What do you have for CCN(CC)CCOc1ccc(C(=O)/C=C\c2ccc(Cl)cc2Cl)cc1 ?
55.2% (inactive)

And for O=C1NC(=O)C(c2coc3cc(Br)ccc23)=C1c1c[nH]c2ccccc12 ?
43.1% (inactive)

And what about the compound O=C(NCc1ccc(Cn2c(=O)sn(-c3ccccc3)c2=O)cc1)OCc1ccc2cccc(O)c2n1 ?
-46.2% (active)

Now consider O=C(/C=C/C12c3ccccc3C(c3ccccc31)C1C(=O)NC(=O)C12)c1ccco1 (stereo not given) .
28.7% (inactive)

====

Can you tell me growth for the items I'm about to list?
System: SF-295 CNS
assay: NCI-60 one-dose screen, 48 h (100 = growth as untreated, 0 = no growth, -100 = all killed)
testParameters: 10 µM unless noted
Compounds without any hit were thinned out: in the full panel of roughly 83,000, 20% have a hit. The source made the active and inactive calls. Rule for the calls: active = growth percent below 10; inactive = the rest.

Suppose we examine the compound CC(C)(C)OC(=O)CN1CCc2c(sc3ncnc(N4CCN(c5ccc(F)cc5)CC4)c23)C1 ; what growth value has been reported?
104% (inactive)

Brc1ccc(Nc2nc(Nc3cnc4ccccc4c3)c3[nH]cnc3n2)cc1 ?
84.7% (inactive)

Similarly, FC(F)(F)c1[nH]ncc1-c1nc2ccc3[nH]ncc3c2c2c1CCCC2 ?
24.3% (inactive)

Record: CCOC(=O)c1c(C)nc2c(c1N)C(=O)C(=O)N2Cc1ccc(OC)cc1
74.3% (inactive)

Entry to check: CCOC(=O)C1=C(c2ccccc2)N=C2N(c3ccccc3)N=C(C(C)=O)N2C1c1ccc(F)cc1 (stereo not given)
98.6% (inactive)

====

Tested on: RXF 393 renal
assay: NCI-60 one-dose screen, 48 h
testParameters: 10 µM unless noted
The panel holds about 83,000 compounds, 20% with a hit somewhere; the sample as a whole holds those more often. The source made the active and inactive calls. The calls were made as follows: active = growth percent below 10; inactive = the rest.
Write down one outcome, taken from active, inactive

GET /call?item= CCN(CC)CCCNc1cc(OC)c(OC)c2cccnc12 returns the recorded outcome of this test.
inactive

// same read-out, input: COc1cc2ncnc(Nc3ccc(F)c(Cl)c3)c2cc1OCC(=O)N1CCOCC1
inactive

Please do the same for Cc1ccc(-c2csc(NC(=O)CSc3nc(N)cc(N)n3)n2)cc1 as well.
inactive

Can you handle CCNC(=O)N1CCc2c(Br)c3c(c(OC)c2C1Cc1ccc(OC)cc1)OCO3 (stereo not given) next?
inactive

And for Cc1ccc2c(c1)sc1nc(-c3c[nH]c4ccccc34)c(Nc3ccccc3)n12 ?
inactive

Consider next the compound O=CN1N=C(c2cccc(Nc3ccnc4cc(Cl)ccc34)c2)CC1c1ccc(Cl)cc1 (stereo not given) in the same way.
active

Can you check Cn1cc(-c2nonc2-c2c[nH]c3ccccc23)c2cc(Br)ccc21 next?
inactive

Follow-up item: CCOC(=O)C/C(=N\Nc1cc(=O)[nH]c2ccc(C)cc12)C(=O)OCC
inactive

Record: O=C1C(Cl)=C(Nc2ccccc2)C(=O)c2ccccc21
active

Repeat with CCOC(=O)CC[C@H](NC(=O)c1ccc(N(C)Cc2cnc3nc(N)nc(N)c3n2)c2ccccc12)C(=O)OCC
inactive

====

Test system: NCI-H460 lung
assay: NCI-60 one-dose screen, 48 h
testParameters: 10 µM unless noted
About 83,000 compounds went through this panel and 20% of them were active in at least one assay; those are over-represented in the sample as a whole. Activity calls are given as the source filed them. Rule for the calls: active = growth percent below 10; inactive = the rest.
Field 'call' accepts active, inactive

Each molecule tested received a call. Report the one for CC12OC(CC(O)C1O)n1c3ccccc3c3c4c(c5c6ccccc6n2c5c31)C(=O)N(CCN1CCCC1)C4=O (stereo not given) .
active

Similarly, CN(C)CCCn1c2c(c3cnccc3c1=O)C(=O)c1ccccc1-2 ?
active

Another molecule: CN(C)CCC(CCN(C)C)(C(=O)O)c1ccccc1
inactive

Next molecule: CNCC[C@H](Oc1cccc2ccccc12)c1cccs1
inactive

Quick one: C=C1C(=O)O[C@@H]2C3C(=C(C)CC[C@@H]12)CC1O[C@]13C (stereo not given in full)
inactive

====

Tested on: MCF7 breast
assay: NCI-60 one-dose screen, 48 h (100 = growth as untreated, 0 = no growth, -100 = all killed)
testParameters: 10 µM unless noted
The panel holds about 83,000 compounds, 20% with a hit somewhere; the sample as a whole holds those more often. The source made the active and inactive calls. The calls were made as follows: active = growth percent below 10; inactive = the rest.
parameter: growth

Consider the molecule Cc1c2cnccc2c(C)c2c1c1cc(CO)ccc1n2C and give its measured growth.
-13.9% (active)

Would you mind doing Cc1cc(=O)n(C(=S)Nc2ccc(Cl)cc2)c2cc(O)ccc12 as well?
98.7% (inactive)

Consider next the molecule COc1ccc(Nc2ncc(I)c(NCCCNC(=O)C3CCC3)n2)cc1 in the same way.
3.83% (active)

Likewise for Nc1nc(N)c2c(n1)NC(c1cccc(Nc3ccnc4cc(C(F)(F)F)ccc34)c1)CC(c1ccc3c(c1)OCO3)=N2 (stereo not given) ?
33.3% (inactive)

Next record, please: CC(=O)O[C@H]1CC[C@]2(C)[C@H]3CC=C4[C@@H]5CC(C)(C)CC[C@]5(C(=O)N5CCN(CCC#N)CC5)CC[C@@]4(C)[C@]3(C)CC[C@H]2C1(C)C
11.6% (inactive)
